Cited source for all entries: the supplement of paper PMC13380429

System: HepG2
experiment.summary: drug sensitivity score (DSS) for viability; higher = more toxic; extreme values may be limits of the assay
measurement.conditions: 72 h
property.name: drug sensitivity score

INSERT INTO results (compound, property_name, recorded_result) VALUES
  ('Cn1c(=O)cc(N2CCC[C@@H](N)C2)n(Cc2cc(F)ccc2C#N)c1=O', 'drug sensitivity score', 0),
  ('N=C(N)Nc1ccc(C(=O)Oc2ccc3cc(C(=N)N)ccc3c2)cc1', 'drug sensitivity score', 0.5),
  ('CC(=O)NCC(=O)N[C@H](CCC(=O)O)C(=O)O', 'drug sensitivity score', 0),
  ('CCOCC(O)COc1ccc(NC(=O)CC[S+](C)C)cc1 (centres undefined)', 'drug sensitivity score', 0),
  ('CC(OC(=O)NCC1(CC(=O)O)CCCCC1)OC(=O)C(C)C (centres undefined)', 'drug sensitivity score', 0),
  ('C#Cc1cncc([C@@H]2CCCN2C)c1', 'drug sensitivity score', 0),
  ('CS(=O)(=O)c1ccc(-c2cnc(N)c(C(=O)Nc3ccccc3)n2)cc1', 'drug sensitivity score', 0.4),
  ('C[C@@H]1CCO[C@H]2Cn3cc(C(=O)NCc4ccc(F)cc4F)c(=O)c(O)c3C(=O)N12', 'drug sensitivity score', 2.1),
  ('COC(=O)C1=C(C)NC(C)=C(C(=O)OCCCN2CCC(c3ccccc3)(c3ccccc3)CC2)[C@@H]1c1cccc([N+](=O)[O-])c1', 'drug sensitivity score', 4.5),
  ('CN(C)C[C@H](O)Cn1c2ccc(Br)cc2c2cc(Br)ccc21 (racemic)', 'drug sensitivity score', 3.5),
  ('CC(=O)[C@H]1CC[C@H]2[C@@H]3CC[C@H]4C[C@H](O)CC[C@]4(C)[C@H]3CC[C@]12C', 'drug sensitivity score', 0),
  ('Cc1cc(O)cc2c1O[C@](C)(CCC[C@H](C)CCC[C@H](C)CCCC(C)C)CC2', 'drug sensitivity score', 0),
  ('CCO[C@H]1O[C@@H]2O[C@@]3(C)CC[C@H]4[C@H](C)CC[C@@H]([C@H]1C)[C@@]24OO3', 'drug sensitivity score', 0.2),
  ('COC(=O)C1=C(C)N(C)C(C)=C(C(=O)OC)C1c1ccc(C(F)(F)F)cc1', 'drug sensitivity score', 0),
  ('O=C1NCCN1CCN1CCC(c2cn(-c3ccc(F)cc3)c3ccc(Cl)cc23)CC1', 'drug sensitivity score', 6.4),
  ('CCC(=O)OCC(=O)[C@@]1(OC(=O)CC)[C@@H](C)C[C@H]2[C@@H]3CCC4=CC(=O)C=C[C@]4(C)[C@@]3(F)[C@@H](O)C[C@@]21C [BETAMETHASONE 17,21-DIPROPIONATE]', 'drug sensitivity score', 0),
  ('CC(C)n1nccc1-c1ncccc1COc1cccc(O)c1C=O', 'drug sensitivity score', 0),
  ('CCC(CC)C(c1ccc(Nc2nc3ccccc3s2)cc1)n1cncn1 (centres undefined)', 'drug sensitivity score', 1.6),
  ('CN(C)CCC=C1c2ccccc2C=Cc2ccccc21', 'drug sensitivity score', 0),
  ('CC(=O)N[C@@H](Cc1c[nH]c2ccccc12)C(=O)OCc1cc(C(F)(F)F)cc(C(F)(F)F)c1', 'drug sensitivity score', 0),
  ('CC/C=C(\C(=O)N[C@@H]1C(=O)N2C(C(=O)OCOC(=O)C(C)(C)C)=C(COC(N)=O)CS[C@H]12)c1csc(N)n1', 'drug sensitivity score', 3.3),
  ('Cc1cc(Nc2cc(C)c(C#N)c(N[C@@H](C)CCCC(C)(C)O)n2)n[nH]1', 'drug sensitivity score', 7.5),
  ('CCCc1ncc(C[n+]2ccccc2C)c(N)n1', 'drug sensitivity score', 0),
  ('CN1CCN(CCOc2cc(OC3CCOCC3)c3c(Nc4c(Cl)ccc5c4OCO5)ncnc3c2)CC1', 'drug sensitivity score', 3.3);
